# Subject of test: T1, human CD47 on cells (human, UniProt Q08722 19-323)
# T1 construct: also called CHO-K1/huCD47; human CD47 over-expressed in CHO-K1 cells
# Test method notes: flow cytometry, blocking of human SIRPα binding to CHO-K1/huCD47 cells; the box on the sheet is labelled EC50; unit taken from the axis
Can you tell me IC50 for the items I'm about to list?
Express it in nM; write the number only.

Q: Answer with reported IC50 of 112E5H7 (antibody, V domains shown, purified murine anti-CD47 hybridoma antibody; same VH and VL as 112E5D9 and 112E5F2; also called 12-112E5H7) VH: QVQLQQSGPQLVRPGASVKISCKASGYSFTNNWMHWMKQRPGQGLEWIGMIDPSDSETRLNQQFRDKATLTVDKTSSTAYMQLSSPTSEDSAVYYCARLGRYYFDYWGLGTTLTVSS VL: NIVMTQSPKSMSVSVGERVTMNCRASEIVGTYVSWYQQKPEQSPKLLIYGAFNRYTGVPDRFTGSRSGTDFSLNISNVQAEDLADYLCGQSYDSPYTFGGGTKLEIK
Ans: 3.4

Q: Give IC50 for the following binder: 112E5F2 (antibody, V domains shown, purified murine anti-CD47 hybridoma antibody; same VH and VL as 112E5D9 and 112E5H7; also called 11-112E5F2) VH: QVQLQQSGPQLVRPGASVKISCKASGYSFTNNWMHWMKQRPGQGLEWIGMIDPSDSETRLNQQFRDKATLTVDKTSSTAYMQLSSPTSEDSAVYYCARLGRYYFDYWGLGTTLTVSS VL: NIVMTQSPKSMSVSVGERVTMNCRASEIVGTYVSWYQQKPEQSPKLLIYGAFNRYTGVPDRFTGSRSGTDFSLNISNVQAEDLADYLCGQSYDSPYTFGGGTKLEIK
Ans: 2.98

Q: Please give measured IC50 of the following entry: 107F11F10 (antibody, V domains shown, purified murine anti-CD47 hybridoma antibody; same VH and VL as 107F11B11 and 107F11C4) VH: EVQLQQSGAEFVKPGASVKLSCTASGFNIEDTYMHWVKQRPEQGLEWIGMIDPANGKTKYGPRFQDKATVTADTSSNTANLQLSSLTSEDTAVYYCADGIGYYVGAMDYWGQGTSVTVSS VL: DIQMNQSPSSLSASLGDTITITCHASQNINVWLSWYQQKPGNIPKLLIYKASNLHTGVPSRFSGSGSGTGFTLTISSLQPEDIATYYCQQGHSYPYTFGGGTKLEIK
Ans: 1.08

Q: Using known records, supply IC50 for 98E2E12 (antibody, V domains shown, purified murine anti-CD47 hybridoma antibody; same VH and VL as 98E2E7; also called 04-98E2E12) VH: QVQLQQSGPQLVRPGASVKISCKASGYSFTNHWMHWMKQRPGQGLEWIGMIDPSDSETRLNQQFKDKATLTVDKSSSTAYMQLSSPTSEDSAVFYCARLGRYYFDYWGQGTTLTVSS VL: NIVMTQSPKSMSVSVGERVTLSCRASDIVGTYVSWYQQKPEQSPKLLIYGASNRYTGVPDRFTGSRSATDFSLTISNVQAEDLADYLCGQSYDSPYTFGGGTKLEIK
Ans: 3.74

Q: # return recorded IC50 for entry 98G5F6 (antibody, V domains shown, purified murine anti-CD47 hybridoma antibody; same VH and VL as 98G5F11; also called 05-98G5F6) VH: QVQLQQSGPQLVRPGASVKISCKASGYSFTNYWMHWMKQRPGQGLEWIGMIDPSDSETRLNQQFKDKATLTVDKSSSTAYMQLSSPTSEDSAVYYCARLGRYYFDFWGQGTTLTVSS VL: NIVMTQSPKSMSVSVGERVTLSCRASEIVGTYVSWYQQKPEQSPKLLIYGASNRFTGVPDRFTGSRSATDFSLTISNVQAEDLADYLCGQSYDSPYTFGGGTKLEIK
Ans: 6.97

Q: Using known records, supply IC50 for 107F11C4 (antibody, V domains shown, purified murine anti-CD47 hybridoma antibody; same VH and VL as 107F11B11 and 107F11F10) VH: EVQLQQSGAEFVKPGASVKLSCTASGFNIEDTYMHWVKQRPEQGLEWIGMIDPANGKTKYGPRFQDKATVTADTSSNTANLQLSSLTSEDTAVYYCADGIGYYVGAMDYWGQGTSVTVSS VL: DIQMNQSPSSLSASLGDTITITCHASQNINVWLSWYQQKPGNIPKLLIYKASNLHTGVPSRFSGSGSGTGFTLTISSLQPEDIATYYCQQGHSYPYTFGGGTKLEIK
Ans: 1.07
